The measurements presented in this section are drawn from patent US20240067651A1.

Papp at 90 min, 10 µM overview
procedure.summary: Caco-2 Permeability Assay
Assay type: in vitro ADME, human
test.settings: human, Caco-2, pH 7.4, Caco-2 monolayer
parameter: Papp at 90 min, 10 µM

{"structure.string": "CC(C)OCCn1c(SCOC(=O)OCCOCCNC(=O)OC(C)(C)C)nc(=O)c2[nH]ccc21", "value.measured": "< 0.107 ×10⁻⁶ cm/s"}
{"structure.string": "CC(C)OCCn1c(=S)[nH]c(=O)c2c1ccn2COC(=O)CCCCNC(=O)CN(C)C(=O)CN.O=C(O)C(F)(F)F", "value.measured": "< 0.254 ×10⁻⁶ cm/s"}
{"structure.string": "CSCC[C@@H](N)C(=O)OCCC(=O)OCn1ccc2c1c(=O)[nH]c(=S)n2CCOC(C)C.O=C(O)C(F)(F)F", "value.measured": "< 0.76 ×10⁻⁶ cm/s"}
{"structure.string": "CC(C)OCCn1c(SCOC(=O)C2CCNCC2)nc(=O)c2c1ccn2COC(=O)CCC(=O)O", "value.measured": "< 0.198 ×10⁻⁶ cm/s"}

----------
procedure.summary: Stability in Simulated Gastric Fluid (SGF)
Type: in vitro ADME
Design: key: % parent compound remaining relative to 0-minute sample
test.settings: simulated gastric fluid, at 1 h
SGF overview

{"compound": "Cc1ccccc1N(C)C(=O)OCn1ccc2c1c(=O)[nH]c(=S)n2CCOC(C)C", "SGF": "99% remaining"}
{"compound": "COc1ccc(N(C)C(=O)OCSc2nc(=O)c3[nH]ccc3n2CCOC(C)C)cc1 [Example 254]", "SGF": "95% remaining"}
{"compound": "CC(C)OCCn1c(SCOC(=O)N(C)c2ccccc2Cl)nc(=O)c2c1ccn2COC(=O)N(C)c1ccccc1Cl", "SGF": "89% remaining"}
{"compound": "CC(C)OCCn1c(=S)[nH]c(=O)c2c1ccn2COC(=O)N(C)c1ccccc1Cl", "SGF": "99% remaining"}
{"compound": "CC(C)OCCn1c(=S)[nH]c(=O)c2c1ccn2C(=O)OC(C)C", "SGF": "100% remaining"}

----------
procedure.summary: Stability in Simulated Gastric Fluid (SGF)
Type: in vitro ADME
Set-up: key: % parent compound remaining relative to 0-minute sample
test.settings: % remaining @ 1 h
SGF overview

{"structure.string": "CC(C)OCCn1c(=S)[nH]c(=O)c2c1ccn2COC(=O)[C@H](NC(=O)OC(C)(C)C)C(C)C", "result.units": "% @ 1 h", "SGF": 99}
{"structure.string": "CC(C)OCCn1c(=S)[nH]c(=O)c2c1ccn2COC(=O)[C@@H](Cc1ccccc1)NC(=O)OC(C)(C)C", "result.units": "% @ 1 h", "SGF": 73}
{"structure.string": "CC(C)OCCn1c(=S)[nH]c(=O)c2c1ccn2COC(=O)[C@@H](C)N.O=C(O)C(F)(F)F", "result.units": "% @ 1 h", "SGF": 99}
{"structure.string": "CC(C)OCCn1c(=S)n(COC(=O)[C@@H](N)C(C)C)c(=O)c2c1ccn2COC(=O)[C@@H](N)C(C)C.O=C(O)C(F)(F)F.O=C(O)C(F)(F)F", "result.units": "% @ 1 h", "SGF": 100}
{"structure.string": "CC(C)OCCn1c(=S)n(COC(=O)[C@H](C)N)c(=O)c2c1ccn2COC(=O)[C@H](C)N.O=C(O)C(F)(F)F.O=C(O)C(F)(F)F", "result.units": "% @ 1 h", "SGF": 100}
{"structure.string": "CC(C)OCCn1c(=S)[nH]c(=O)c2c1ccn2COC(=O)CCCCOC(=O)CN.O=C(O)C(F)(F)F", "result.units": "% @ 1 h", "SGF": 84}
{"structure.string": "CC(C)OCCn1c(=S)[nH]c(=O)c2c1ccn2COC(=O)[C@@H](N)C(C)C.O=C(O)C(F)(F)F", "result.units": "% @ 1 h", "SGF": 97}
